# system under test: T1, human recombinant HER4 Extracellular Domain (HER4 ECD) (human, UniProt Q15303 26-651)
# T1 sequence: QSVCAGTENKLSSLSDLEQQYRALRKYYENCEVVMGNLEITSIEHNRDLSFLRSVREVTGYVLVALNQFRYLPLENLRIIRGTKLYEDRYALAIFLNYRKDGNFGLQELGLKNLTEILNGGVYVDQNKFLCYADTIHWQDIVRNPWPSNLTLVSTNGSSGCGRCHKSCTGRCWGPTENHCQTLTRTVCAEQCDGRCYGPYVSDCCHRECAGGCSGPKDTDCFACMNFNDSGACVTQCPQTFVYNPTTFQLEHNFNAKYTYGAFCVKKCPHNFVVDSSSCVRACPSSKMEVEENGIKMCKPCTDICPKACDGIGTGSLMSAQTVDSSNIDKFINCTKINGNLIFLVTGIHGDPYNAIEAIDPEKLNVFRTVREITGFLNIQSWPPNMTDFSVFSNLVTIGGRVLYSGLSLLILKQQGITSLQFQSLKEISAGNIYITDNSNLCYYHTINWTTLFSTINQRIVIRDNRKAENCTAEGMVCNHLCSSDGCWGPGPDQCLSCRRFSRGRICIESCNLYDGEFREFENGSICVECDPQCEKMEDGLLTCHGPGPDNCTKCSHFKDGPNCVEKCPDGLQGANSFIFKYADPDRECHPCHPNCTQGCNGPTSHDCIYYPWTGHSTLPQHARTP
# assay remarks: ELISA, antigen coated, hybridoma supernatant
Below, each of the binders is paired with its reported OD 405 nm value.
Answer format: numeric, OD implied, no suffix.

anti-HER3 antibody M-43-01 (antibody, V domains shown, mouse hybridoma clone) VH: EVQLQQSGTVLARPGASVKMSCKASDYTFSNYWVHWVKQRPGQGLEWIGAIYPGNGDSTYYQKFKGKATLTAVTSTSTAYMDLSSLTNGDSAVYFCTRSGVGYNYYFDYWGQGTTLTVSS VL: DIQMTQSPASLSASVGETVTITCRASENIYSNLAWYQQKQGKSPQLLVYIATNLADGVPSRFSGSGSGTQFSLKINSLQPEDLGSYYCQHFYGTPFTFGTGTKLEIE
0.04
anti-HER3 antibody M-17-07 (antibody, V domains shown, mouse hybridoma clone) VH: EVQLQQSGTVLARPGASVKMSCKASGYSFTSYWIHWVKQRPGQGLEWIGAIYPGNSDTTYNQKFKGKAKLTAVTSASTAYMELSSLTNEDSAVYYCARTGVWTSYYFDYWGQGTTLTVSS VL: DIQMTQSPASLSASVGETVTITCRASENIYSNLAWYQQKQGKSPQLLVYAATNLADGVPSRFSGSGSGTQFSLRINSLQPEDFGSYYCQHFYGTPFTFGTGTKLEIK
0.03

Input line: OD 405 nm lookup needed for anti-HER3 antibody M-46-01 (antibody, V domains shown, mouse hybridoma clone) VH: QIQLQQSGPQLVRPGASVKISCKASGYSFTSYWMHWVKQRPGRGLEWIGMIDPSDGVTRLNQKFKDKATLTVDNSSSTAYMQLSSPTSEDSAVHYCARVDVLYWYFDVWGAGTTVTVSS VL: DIVLTQSPASLAVSLGQRATISCRASKSISISGYSYMHWYQQKAGQPPKLLIYLTSNLESGVPARFSGSGSGTDFTLNIHPVEEEDAATYYCHHSRELPFTFGSGTKLEIK , thanks.
Output line: 0.032

src = patent US20180094062A1
